# target: MLKL (Homo sapiens)
# Sequence (Q8NB16 1-471): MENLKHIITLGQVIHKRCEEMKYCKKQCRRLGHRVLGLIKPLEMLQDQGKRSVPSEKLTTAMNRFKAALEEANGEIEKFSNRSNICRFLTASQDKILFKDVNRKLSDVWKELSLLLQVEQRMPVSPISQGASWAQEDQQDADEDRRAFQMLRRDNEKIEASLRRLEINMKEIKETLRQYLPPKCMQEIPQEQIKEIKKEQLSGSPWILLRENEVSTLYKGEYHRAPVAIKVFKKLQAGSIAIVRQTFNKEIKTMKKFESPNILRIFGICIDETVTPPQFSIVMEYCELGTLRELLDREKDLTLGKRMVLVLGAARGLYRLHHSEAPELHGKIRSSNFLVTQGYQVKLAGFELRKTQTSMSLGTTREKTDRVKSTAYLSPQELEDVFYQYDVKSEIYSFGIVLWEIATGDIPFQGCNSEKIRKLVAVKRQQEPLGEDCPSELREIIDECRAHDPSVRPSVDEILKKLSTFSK
pKd: −log10 of the molar value.
measuredMetric: pKd

// below: answered compounds
compound: Nc1ncc(-c2cnn(C3CCN(CCC4CCN(C(=O)CNc5ccc6nnn(C7CCC(=O)NC7=O)c(=O)c6c5)CC4)CC3)c2)nc1C(=O)O[C@@H](C(=O)Nc1ccc(F)cc1)c1ccccc1 (some centres unmarked)
reportedResult: 9.09

compound: CC(=O)N1CC[C@H](n2cc(-c3cnc(N)c(C(=O)OC(C(=O)Nc4ccc(F)cc4)c4ccccc4)n3)cn2)C1 (some centres unmarked)
reportedResult: 8.92

compound: COc1ccc(C(=O)N2CCC(OCCN3CCC(n4cc(-c5cnc(N)c(C(=O)O[C@@H](C(=O)Nc6ccc(F)cc6)c6ccccc6)n5)cn4)CC3)CC2)cc1N1CCC(=O)NC1=O
reportedResult: 9.42

compound: Nc1ncc(-c2cnn(C3CCN(CCCN4CC5CN(C(=O)CCc6ccc7c(c6)C(=O)N(C6CCC(=O)NC6=O)C7=O)CC5C4)CC3)c2)nc1C(=O)O[C@@H](C(=O)Nc1ccc(F)cc1)c1ccccc1 (some centres unmarked)
reportedResult: 9.32

compound: COc1ccc(C(=O)N2CCC(CCN3CCC(CN4CCC(n5cc(-c6cnc(N)c(C(=O)O[C@@H](C(=O)Nc7ccc(F)cc7)c7ccccc7)n6)cn5)CC4)CC3)CC2)cc1N1CCC(=O)NC1=O
reportedResult: 9.02

compound: CC(=O)N1CCC(n2cc(-c3cnc(N)c(C(=O)O[C@@H](C(=O)Nc4ccc(F)cc4)c4ccc(Cl)cc4)n3)cn2)CC1
reportedResult: 8.96

compound: Nc1ncc(-c2cnn(C3CCN(CC4CCN(CC(=O)N5CCN(c6cccc7c6C(=O)N(C6CCC(=O)NC6=O)C7=O)CC5)CC4)CC3)c2)nc1C(=O)OC(C(=O)Nc1ccc(F)cc1)c1ccccc1 (centres unmarked)
reportedResult: 8.74

compound: Nc1ncc(-c2cnn(C3CCN(CC4CCN(C(=O)C5CCN(c6ccc7c(c6)C(=O)N(C6CCC(=O)NC6=O)C7=O)CC5)CC4)CC3)c2)nc1C(=O)O[C@@H](C(=O)Nc1ccc(F)cc1)c1ccccc1 (some centres unmarked)
reportedResult: 7.62

I = Nc1ncc(-c2cnn(C3CCN(CCOCCOCCNc4ccc5c(c4)C(=O)N(C4CCC(=O)NC4=O)C5=O)CC3)c2)nc1C(=O)O[C@@H](C(=O)Nc1ccc(F)cc1)c1ccccc1 (some centres unmarked)
II = Nc1ncc(-c2cnn(C3CCN(CCC4CCN(C(=O)CNc5cccc6c5C(=O)N(C5CCC(=O)NC5=O)C6=O)CC4)CC3)c2)cc1C(=O)OC(C(=O)Nc1ccc(F)cc1)c1ccccc1 (centres unmarked)
III = Nc1ncc(-c2cnn([C@@H]3CCN(CCOCCOCCNC(=O)CNc4cccc5c4C(=O)N(C4CCC(=O)NC4=O)C5=O)C3)c2)nc1C(=O)OC(C(=O)Nc1ccc(F)cc1)c1ccccc1 (some centres unmarked)
[ask] Hey, quick one: sort these by pKd, low to high? Ranked list of labels, please, in the requested order.
[reply] II, III, I
(II: 7.89, III: 8.24, I: 8.74)
